# Experimental system: pooled human IgG (human IgG1, 2, 3 and 4)
Readout name: Enzyme Activity Endpoint Assay (purified): Fc
Number first, unit second: that is the form wanted.

In: So what's the measured Enzyme Activity Endpoint Assay (purified): Fc for this one? PRT-398 (protein) MVTSVWTKGVTPPADFTQGEDVFHAPYVANQGWYDITKTFNGKDDLLCGAATAGNMLHWWFDQNKEYIEAYLKKHPEKQKIMFGDQELLDVRKAINTKGSQKNSELFNYFRDKAFPNLSARRLGVMPDLVLDMFINGYYLNVTKTQTTDVNRTYQEKDKRGGIFDAVFTRGDQSKLLTSRHDFKEKGLKEISDLIKQELTEGKALGLSHTYANVRINHVINLWGADFDSDGNLKAIYVTDSDSNASIGMKKYDVGVNSAGKVAISAKEIKEDNIGAQVLGLFTLSTGQDIWNQTN
Out: 370 ng/µL

The measured values listed here are drawn from patent US20250027068.
